# assay.comment: binders of probe aFSTL3 on microarray, primary screen, stem cell growth factor project, biochemical, small-molecule microarray, fluorescence 635/667 (AID 1064);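 further: measures binding of the biotinylated anti-FSTL3 antibody to printed compounds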
# stated.conditions: higher = more signal
Below, each entry is listed with its recorded composite z-score.
Lab note: write the figure by itself, no unit.

Worked examples follow.
* C=C(COC)/C(=C/C[C@H](OC(=O)c1ccncc1)c1ccc(CO)o1)c1cc(C(=O)OC)ccc1OC | -0.393
* CCOC(=O)NN=C1C[C@@H](O)[C@@H](O)[C@@H]2[C@@H]3C(=O)N(C[C@@H]4CCCO4)C(=O)[C@@H]3CC[C@@H]12 | -0.216
* C=CCN1C(=O)[C@]2(O[C@H](CCn3cc(CCO)nn3)[C@@H]([Si](C)(C)c3ccc(OC)cc3)[C@@H]2C)c2cc(N3CCOC3=O)ccc21 | -0.0415

Q: May I ask what composite z-score has been recorded for O=C1[C@H]2[C@H]3[C@H](O)[C@H](O)CC(=NO[C@@H]4O[C@H](CO)[C@@H](O)[C@H](O)[C@H]4O)[C@@H]3CC[C@H]2C(=O)N1c1ccc(F)cc1F ?
Result: -0.383

Q: I have this compound here, Cc1ccc(S[C@]2(C(=O)O)CC(=O)N(Cc3ccccc3)[C@@H]2c2ccc(CO)cc2I)cc1 , and I need its recorded composite z-score.
Result: 0.481

Q: Which measured composite z-score value corresponds to C[C@@H](c1ccccc1)N1C(=O)[C@H]2[C@H]3[C@H](O)[C@H](O)CC(=NNC(=O)OCc4ccccc4)[C@H]3CC[C@H]2C1=O ?
Result: 0.512

Q: I would be grateful if you could share the reported composite z-score for C[C@@H]1CCC2C(=O)N(Cc3ccccc3)C[C@@H](O)CN2[C@H]1c1ccc(Br)cc1 (some centres not stated) .
Result: -0.364
